// data source = ChEMBL document CHEMBL3352487

assayComment: Cmax in Sprague-Dawley rat at 25 mg/kg, po
Type: ADME, organism-based
Design: dose 25 mg/kg, route oral
appliedConditions: in vivo
readoutLabel: log10 Cmax (log10 of the value in µg/mL)
Remember, log10 of Cmax, in µg/mL.

As a guide, the following entries are already answered.
- structureAsSmiles: "CCCC[C@H](CN(O)C=O)C(=O)N1CC=C[C@H]1C(=O)Nc1ccc(F)c[n+]1[O-]"
  log10 Cmax: 0.14
- structureAsSmiles: "CCCC[C@H](CN(O)C=O)C(=O)N1CC=C[C@H]1C(=O)Nc1ncc(C)s1"
  log10 Cmax: 1.09
- structureAsSmiles: "O=CN(O)C[C@@H](CC1CCCC1)C(=O)N1CC=C[C@H]1C(=O)Nc1ccc(F)c[n+]1[O-]"
  log10 Cmax: -0.02
- structureAsSmiles: "C=C1C[C@@H](C(=O)Nc2ncc(C)s2)N(C(=O)[C@H](CCCC)CN(O)C=O)C1"
  log10 Cmax: 1.20

Turning now to a further molecule:
Quick one: log10 Cmax for Cc1cnc(NC(=O)[C@@H]2C=CCN2C(=O)[C@H](CC2CCCC2)CN(O)C=O)s1 ?
0.66
